- Tested on: CD19+ B cells
- protocol text: Human B cell proliferation assay (3H-thymidine incorporation)
- measurement context: B cells; donor 121; 2 μg/ml; Experiment B
Strand notation (5' to 3'): a small letter for the sugar, then the base; units joined by * are phosphorothioate-linked, units joined directly phosphodiester-linked; [ ] holds rarer units or linkages, { } end groups; capitals alone tell only the bases. d = 2'-deoxy (DNA)
Entries are grouped by cpm3 into these classes: bucket A = under 10000 cpm, bucket B = from 10000 cpm up to 20000 cpm, bucket C = 20000 cpm and over

5′-TCGTCG-3′-HME-5′-ACGTTCG-3′-HME-5′-AGATGAT-3′ [Compound C-25] = bucket C
5′-ACGTTCG-3′-HEG-5′-ACGTTCG-3′-HEG-5′-AGATGAT-3′ [Compound C-24] = bucket A
5′-TCGTCG-3′-HEG-5′-TCGTCG-3′-HEG-5′-TCGTCG-3′ [Compound C-22] = bucket A
5′-TCGTCG-3′- C3-5′-ACGTTCG-3′-C3-5′-AGATGAT-3′ [Compound C-11] = bucket B
(5′-TCGTCGA-3′)2-glycerol-5′-TCGTCGA-3′ [Compound C-28] = bucket C
5′-TCGTCG-3′-abasic-5′-ACGTTCG-3′-abasic-5′-AGATGAT-3′ [Compound C-20] = bucket C
5′-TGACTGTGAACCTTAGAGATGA-3′ (SEQ ID NO: 3) (dT*dG*dA*dC*dT*dG*dT*dG*dA*dA*dC*dC*dT*dT*dA*dG*dA*dG*dA*dT*dG*dA) [Compound P-7, reference compound] = bucket A
5′-TCGTCG-3′-HEG-5′-ACGTTCG-3′-HEG-5′-AGATGAT-3′ [Compound C-10] = bucket B
5′-TCGTCG-3′-TEG-5′-ACGTTCG-3′-TEG-5′-AGATGAT-3′ [Compound C-18] = bucket B
5′-TCGTCG-3′-C12-5′-ACGTTCG-3′-C12-5′-AGATGAT-3′ [Compound C-19] = bucket A

Please indicate the class for (5′-TCGTCGA-3′-HEG)2-glycerol-HEG-5′-TCGTCGA-3′ [Compound C-94] based on its cpm3.
bucket B

Please indicate the class for 5′-TCGTCGA-3′- C3-5′-ACGTTCG-3′-C3-5′-AGATGAT-3′ [Compound C-9] based on its cpm3.
bucket C

Please indicate the class for 5′-TCGTCGA-3′-HEG-5′-ACGTTCG-3′-HEG-5′-AGATGAT-3′ [Compound C-8] based on its cpm3.
bucket B

###

- System: CD19+ B cells
- protocol text: Human B cell proliferation assay (3H-thymidine incorporation)
- measurement context: B cells; Donor 146; 2 μg/ml; Experiment A
Strand notation (5' to 3'): a small letter for the sugar, then the base; units joined by * are phosphorothioate-linked, units joined directly phosphodiester-linked; [ ] holds rarer units or linkages, { } end groups; capitals alone tell only the bases. d = 2'-deoxy (DNA)
So I've got a bunch of substances here, and I need their cpm1 values.
Number first, unit second.

Sample answers from the record:
5′-TCGTCGA-3′-HEG-5′-TCGTCGA-3′-HEG-5′-TCGTCGA-3′ [Compound C-21] = 28467 cpm
5′-TCGTCGA-3′- C3-5′-ACGTTCG-3′-C3-5′-AGATGAT-3′ [Compound C-9] = 35365 cpm
(5′-TCGTCGA-3′)2-glycerol-5′-TCGTCGA-3′ [Compound C-28] = 50999 cpm

Would you mind giving cpm1 for every substance in the list below?
1. 5′-TCGTCGA-3′-HEG-5′-ACGTTCG-3′-HEG-5′-AGATGAT-3′ [Compound C-8]
2. 5′-TCGTCGA-3′ [Compound P-1, reference compound]
3. 5′-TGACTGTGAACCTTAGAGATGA-3′ (SEQ ID NO: 3) (dT*dG*dA*dC*dT*dG*dT*dG*dA*dA*dC*dC*dT*dT*dA*dG*dA*dG*dA*dT*dG*dA) [Compound P-7, reference compound]
4. 5′-TGCTGC-3′-HEG-5′-AGCTTGC-3′-HEG-5′-AGATGAT-3′ [Compound M-1, reference compound]

["23815 cpm", "761 cpm", "4858 cpm", "1514 cpm"]

###

- Tested on: human PBMCs
- protocol text: Human PBMC cytokine response assay (IFN-γ and IFN-α in cell-free medium by ELISA), with or without cPLGA
- Type: cell-based
- measurement context: Example 59; 4 ug/ml; donor 48
Strand notation (5' to 3'): a small letter for the sugar, then the base; units joined by * are phosphorothioate-linked, units joined directly phosphodiester-linked; [ ] holds rarer units or linkages, { } end groups; capitals alone tell only the bases. d = 2'-deoxy (DNA)
Mark not fulfilled for IFN-α values under 800 pg/mL, and fulfilled for everything at or above.

Study these solved cases before continuing.
(5′-TAGTCAT-3′-HEG)2-glycerol-HEG-5′-AACCTTC-3′ [Compound M-3, reference compound] = not fulfilled
5′-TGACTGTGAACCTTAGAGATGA-3′ (SEQ ID NO: 3) (dT*dG*dA*dC*dT*dG*dT*dG*dA*dA*dC*dC*dT*dT*dA*dG*dA*dG*dA*dT*dG*dA) [Compound P-7, negative control, reference compound] = not fulfilled
(5′-TCGACGT-HEG)2-glycerol-HEG-5′-TTGGCCAAGCTTGGCCAA (SEQ ID NO: 116) (DNA, all phosphorothioate, methylation of C not given here; Two heptamer DNA arms joined by HEG spacers and glycerol branching to the chain) [Compound C-178] = fulfilled
(5′-TCGACGT-HEG)2-glycerol-HEG-5′-CCTACTGAACCTCTAAGT-3′ (SEQ ID NO: 158) (DNA, all phosphorothioate, methylation of C not given here; Two heptamer DNA arms joined by HEG spacers and glycerol branching to the chain) [Compound C-203] = not fulfilled

Has (5′-TCGACGT-HEG)2-glycerol-HEG-5′-ACTTAGAGGTTCAGTAGG-3′ (SEQ ID NO: 157) (DNA, all phosphorothioate, methylation of C not given here; Two heptamer DNA arms joined by HEG spacers and glycerol branching to the chain) [Compound C-202] a recorded IFN-α greater than or equal to 800 pg/mL?
fulfilled

###

- System: human PBMCs
- protocol text: Human PBMC cytokine response assay (IFN-γ and IFN-α in cell-free medium by ELISA), with or without cPLGA
- Assay type: cell-based
- measurement context: Table 10; donor 28044
Strand notation (5' to 3'): a small letter for the sugar, then the base; units joined by * are phosphorothioate-linked, units joined directly phosphodiester-linked; [ ] holds rarer units or linkages, { } end groups; capitals alone tell only the bases. d = 2'-deoxy (DNA)
Criterion: IFN-γ strictly under 800 pg/mL. Met: t. Not met: f.

Study these solved cases before continuing.
5′-TCGTCGA-3′-HEG-5′-TCGTCGA-3′ [Compound C-39] = t
5′-TCGTTTT-3′-HEG-5′-TCGTTTT-3′-HEG-5′-TCGTTTT-3′ [Compound C-41] = f
5′-TCGAGAT-3′-HEG-5′-TCGAGAT-3′-HEG-5′-TCGAGAT-3′ [Compound C-45] = f
5′-TCGTCGA-3′-HEG-5′-ACGTTCG-3′-HEG-5′-AGATGAT-3′ [Compound C-8] = f
5′-TCGTCG-3′-HEG-5′-TCGTCG-3′-HEG-5′-TCGTCG-3′ [Compound C-22] = t
5′-TCGTCGT-3′-HEG-5′-TGTCGTT-3′-HEG-5′-TGTCGTT-3′ [Compound C-47] = t
5′-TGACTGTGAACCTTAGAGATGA-3′ (SEQ ID NO: 3) (dT*dG*dA*dC*dT*dG*dT*dG*dA*dA*dC*dC*dT*dT*dA*dG*dA*dG*dA*dT*dG*dA) [Compound P-7, negative control, reference compound] = t

API: query returns whether the substance falls strictly under 800 pg/mL in IFN-γ. Query: 5′-ACGTTCG-3′-HEG-5′-ACGTTCG-3′-HEG-5′-AGATGAT-3′ [Compound C-24]
t

###

- System: human PBMCs
- protocol text: Human PBMC cytokine response assay (IFN-γ and IFN-α in cell-free medium by ELISA), with or without cPLGA
- Assay type: cell-based
- measurement context: Table 24; donor 28236
Strand notation (5' to 3'): a small letter for the sugar, then the base; units joined by * are phosphorothioate-linked, units joined directly phosphodiester-linked; [ ] holds rarer units or linkages, { } end groups; capitals alone tell only the bases. d = 2'-deoxy (DNA)
So I've got a bunch of substances here, and I need their IFN-γ values.
Number first, unit second.

5′-TCGTCGA-3′-C3-5′-TCGTCGA-3′-C3-5′-TCGTCGA-3′ all phosphorothioate linkages [Compound C-33] = 247 pg/mL
(5′-TCGACGT-3′-HEG)2-glycerol-HEG-5′-TCGACGT-3′ [Compound C-101] = 627 pg/mL

IFN-γ for 5′-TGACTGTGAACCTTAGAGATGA-3′ (SEQ ID NO: 3) (dT*dG*dA*dC*dT*dG*dT*dG*dA*dA*dC*dC*dT*dT*dA*dG*dA*dG*dA*dT*dG*dA) [Compound P-7, negative control, reference compound] ?
7 pg/mL
